Molecular target: JAK3 (Homo sapiens)
Construct: purchased Invitrogen
Sequence (P52333 1-1124): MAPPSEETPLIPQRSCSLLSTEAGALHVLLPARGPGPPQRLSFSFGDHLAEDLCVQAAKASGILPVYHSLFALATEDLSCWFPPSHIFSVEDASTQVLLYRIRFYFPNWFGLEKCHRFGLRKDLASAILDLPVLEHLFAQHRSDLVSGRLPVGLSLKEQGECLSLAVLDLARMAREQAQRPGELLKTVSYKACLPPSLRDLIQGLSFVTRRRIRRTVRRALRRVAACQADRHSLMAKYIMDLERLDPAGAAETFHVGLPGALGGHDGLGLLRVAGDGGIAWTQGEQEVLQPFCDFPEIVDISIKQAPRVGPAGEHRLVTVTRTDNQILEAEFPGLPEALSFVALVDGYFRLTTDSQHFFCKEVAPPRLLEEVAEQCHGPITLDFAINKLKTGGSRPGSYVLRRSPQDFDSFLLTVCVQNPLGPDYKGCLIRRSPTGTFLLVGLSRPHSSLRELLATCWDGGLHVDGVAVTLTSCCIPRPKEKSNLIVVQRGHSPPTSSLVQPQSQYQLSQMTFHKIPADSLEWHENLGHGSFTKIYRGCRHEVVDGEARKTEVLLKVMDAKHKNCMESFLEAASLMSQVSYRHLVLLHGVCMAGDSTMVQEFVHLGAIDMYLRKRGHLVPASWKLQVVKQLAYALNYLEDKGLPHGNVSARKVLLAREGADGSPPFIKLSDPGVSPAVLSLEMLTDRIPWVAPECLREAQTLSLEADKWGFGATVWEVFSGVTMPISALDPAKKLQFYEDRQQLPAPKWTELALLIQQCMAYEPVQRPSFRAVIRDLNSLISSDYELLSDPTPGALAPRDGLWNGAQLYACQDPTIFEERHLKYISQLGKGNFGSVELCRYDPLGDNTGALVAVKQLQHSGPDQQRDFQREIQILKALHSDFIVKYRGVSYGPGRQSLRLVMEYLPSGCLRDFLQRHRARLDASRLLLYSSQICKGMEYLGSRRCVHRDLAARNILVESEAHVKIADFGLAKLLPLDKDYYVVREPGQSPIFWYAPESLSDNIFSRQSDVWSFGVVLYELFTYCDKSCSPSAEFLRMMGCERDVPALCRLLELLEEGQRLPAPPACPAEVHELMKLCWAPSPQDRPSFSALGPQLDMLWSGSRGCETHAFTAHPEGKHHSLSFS
Assay: JAK3 enzyme inhibition test (LANCE method)
Assay type: biochemical
Conditions: 1 μM test compound; read-out: JAK3 enzyme inhibitory activity (%, 1 μM)
reported_metric: inhibition at 1 µM (%)

- CC(C)[C@H](C)n1cc(-c2cc(N3CC4(COC4)C3)n(C)n2)c2[nH]nc(N)c2c1=O: 99
- CC(C)[C@H](C)n1cc(-c2cc(N3CCCCC3=O)n(C)n2)c2[nH]nc(N)c2c1=O: 100
- Cc1cc(-c2cn(C(C3CC3)C3CC3)c(=O)c3c(N)n[nH]c23)nn1C: 99
